All values here come from paper PMC13239830.

# Test system: VL51 cells
# Format: cell-based, human
# APPLIED CONDITIONS: 72 h
# Text: The established human cell lines VL51 1 and Karpas1718 2, derived from bona fide marginal zone lymphomas (MZL), and their derivatives with secondary resistance obtained by long exposure to the BTK inhibitor ibrutinib, the PI3Kδ inhibitor idelalisib or the PI3Kα/δ inhibitor copanlisib (three from VL51 3-5, and one from Karpas1718 6). […]
Peptide text beside a SMILES is read from it.
MEASURED METRIC: IC50 (µM)
A number alone suffices; assume µM.

Here are 2 molecules together with their reported answers.
- MOLECULE: "CC[C@H](C)[C@H](NC(=O)[C@@H]1CCCN1C(=O)[C@H](CC(C)C)NC(=O)[C@@H](N)CC(C)C)C(=O)N[C@H](C(=O)NCC(=O)N[C@@H](CC(N)=O)C(=O)N[C@@H](CC(C)C)C(=O)N[C@@H](CC(C)C)C(=O)N[C@@H](CCCCN)C(=O)N[C@@H](CO)C(=O)N[C@@H](CC(C)C)C(=O)N[C@@H](CC(C)C)C(N)=O)C(C)C [Temporin B] (H-LLPIVGNLLKSLL-NH2; N-terminus and C-terminus assumed)"
  UNIT ABBREV: "µM"
  IC50: 38.2
- MOLECULE: "CC[C@H](C)[C@H](NC(=O)[C@H](CCCNC(=N)N)NC(=O)CNC(=O)[C@H](CC(C)C)NC(=O)[C@H](Cc1ccccc1)NC(=O)[C@H](CCCCN)NC(=O)[C@H](CO)NC(=O)[C@H](Cc1ccccc1)NC(=O)[C@H](Cc1c[nH]c2ccccc12)NC(=O)[C@H](CCC(N)=O)NC(=O)[C@@H](NC(=O)[C@@H](N)Cc1ccccc1)C(C)C)C(=O)N[C@@H](CC(C)C)C(N)=O [Temporin L] (H-FVQWFSKFLGRIL-NH2)"
  UNIT ABBREV: "µM"
  IC50: 8.9

Continue with the next molecule.
Exercise: API: value(readout= IC50, system= VL51 cells, query= CC[C@H](C)[C@H](NC(=O)CNC(=O)[C@H](CO)NC(=O)[C@H](CC(C)C)NC(=O)[C@@H](NC(=O)[C@H](CCCNC(=N)N)NC(=O)CNC(=O)[C@@H](NC(=O)[C@H](CC(C)C)NC(=O)[C@@H]1CCCN1C(=O)[C@H](CC(C)C)NC(=O)[C@@H](N)Cc1ccccc1)[C@@H](C)CC)C(C)C)C(=O)N[C@@H](CC(C)C)C(N)=O [Temporin A] (H-FLPLIGRVLSGIL-NH2; N-terminus and C-terminus assumed) )
Key: 32
